Source: the supplement of paper PMC6757056

// reported FACS-Seq fitted mean (log10) per item
B1: library; a variant is named by its letters at N, in order (parent)
chain: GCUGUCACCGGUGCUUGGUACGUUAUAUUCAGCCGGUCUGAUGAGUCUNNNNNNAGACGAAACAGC

- Variants of: B1
- Test: FACS-Seq fitted mean relative fluorescence mCherry/BFP with ligand (log10 relative fluorescence); HEK293T overexpressing SLC46A1; ligand concentration (+) FACS-Seq: 6 mM; higher = higher reporter protein expression
- Assay context: with (6R,S)-folinic acid; ligand present: yes

These solved cases illustrate the format of a correct answer.
>>> result("AACAAG")
0.113
>>> result("UGUUCC")
0.146
>>> result("GAUAGC")
0.257
>>> result("AUAAUA")
0.369
>>> result("UGCAAA")
0.532

Q) Consider the variant `CCGAGC` and give its measured FACS-Seq fitted mean (log10).
A) 0.357

Q) Consider the variant `ACAUAA` and give its measured FACS-Seq fitted mean (log10).
A) -0.603

Q) Consider the variant `GAGUGC` and give its measured FACS-Seq fitted mean (log10).
A) 0.338

Q) Consider the variant `AAAGGC` and give its measured FACS-Seq fitted mean (log10).
A) 0.631

Q) Consider the variant `AAAAAU` and give its measured FACS-Seq fitted mean (log10).
A) 0.512

Q) Consider the variant `AAAUGA` and give its measured FACS-Seq fitted mean (log10).
A) 0.406

Q) Consider the variant `GGACGU` and give its measured FACS-Seq fitted mean (log10).
A) 0.529

Q) Consider the variant `AGUCGA` and give its measured FACS-Seq fitted mean (log10).
A) 0.506
